Measured log10(IC50) accompanies every entry in the list below.
# MEASURED TARGET: Dolichyl-phosphate-mannose--protein mannosyltransferase 1 (Candida albicans (strain SC5314 / ATCC MYA-2876) (Yeast))
# Sequence (O74189 whole entry): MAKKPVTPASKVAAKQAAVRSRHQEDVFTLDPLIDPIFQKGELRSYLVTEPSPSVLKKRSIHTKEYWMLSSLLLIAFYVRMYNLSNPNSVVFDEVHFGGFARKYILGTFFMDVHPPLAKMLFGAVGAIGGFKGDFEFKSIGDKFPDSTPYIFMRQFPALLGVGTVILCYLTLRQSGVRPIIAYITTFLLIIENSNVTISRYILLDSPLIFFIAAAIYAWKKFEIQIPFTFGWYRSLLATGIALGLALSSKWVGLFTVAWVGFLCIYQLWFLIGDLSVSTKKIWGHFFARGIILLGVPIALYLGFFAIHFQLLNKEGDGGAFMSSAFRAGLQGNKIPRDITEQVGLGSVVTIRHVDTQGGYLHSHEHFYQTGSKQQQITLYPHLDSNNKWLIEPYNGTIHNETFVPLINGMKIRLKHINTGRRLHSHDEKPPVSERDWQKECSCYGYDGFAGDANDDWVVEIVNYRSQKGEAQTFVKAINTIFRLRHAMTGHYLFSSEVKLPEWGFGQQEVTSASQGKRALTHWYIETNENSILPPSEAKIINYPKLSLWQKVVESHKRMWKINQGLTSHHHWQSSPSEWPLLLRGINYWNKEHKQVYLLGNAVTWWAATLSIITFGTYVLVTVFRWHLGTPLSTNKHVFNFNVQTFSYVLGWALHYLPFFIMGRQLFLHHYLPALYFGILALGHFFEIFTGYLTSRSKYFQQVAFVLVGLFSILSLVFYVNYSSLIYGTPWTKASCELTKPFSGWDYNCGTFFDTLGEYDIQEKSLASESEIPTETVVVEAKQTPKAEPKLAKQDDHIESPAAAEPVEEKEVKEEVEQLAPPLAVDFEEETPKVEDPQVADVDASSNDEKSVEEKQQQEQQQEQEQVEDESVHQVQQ
# PROCEDURE TEXT: In vitro inhibition of Candida albicans protein mannosyl transferase 1
Record value = log10 of IC50 given in µM.

>  <COMPOUND>
O=C(O)CN1C(=O)/C(=C/c2ccc(OCc3ccc(F)cc3F)c(OCc3ccc(F)cc3F)c2)SC1=S

>  <log10(IC50)>
0.70

$$$$
>  <COMPOUND>
C[C@H](COc1ccc(/C=C2\SC(=S)N(CC(=O)O)C2=O)cc1OCc1ccccc1)c1ccccc1

>  <log10(IC50)>
0.98

$$$$

# get_value(readout='log10(IC50)', item= O=C(O)CN1C(=O)/C(=C/c2ccc(OCc3ccc(F)cc3)c(OCc3ccc(F)cc3)c2)SC1=S )
0.70

Queued: C[C@H](COc1ccc(/C=C2\SC(=S)N(CC(=O)O)C2=O)cc1O[C@@H](c1ccccc1)C(F)(F)F)c1ccccc1
0.54

Thanks! And O=C(O)CN1C(=O)/C(=C/c2ccc(OCCc3ccccc3)c(OC(CO)c3ccccc3)c2)SC1=S (centres undefined) ?
-0.77
